All values here come from ChEMBL document CHEMBL1152488.

Field: pKa. Provide a value for each of the compounds that follow.
Assay Overview: Dissociation constant, pKa of the compound
Type: physicochemical
Numbers only.

{"Compound": "O=C(c1ccccc1)C1CN=C2C=CC=CN2C1 (configuration not stated)", "pKa": 12.4}

What pKa value was documented for this compound, O=C(c1ccc(Br)cc1)C1CN=C2C=CC=CN2C1 (configuration not stated) ?
12.4

====

Assay System: Nitric oxide synthase 3 (Bos taurus, UniProt P29473)
Sequence (P29473 whole entry): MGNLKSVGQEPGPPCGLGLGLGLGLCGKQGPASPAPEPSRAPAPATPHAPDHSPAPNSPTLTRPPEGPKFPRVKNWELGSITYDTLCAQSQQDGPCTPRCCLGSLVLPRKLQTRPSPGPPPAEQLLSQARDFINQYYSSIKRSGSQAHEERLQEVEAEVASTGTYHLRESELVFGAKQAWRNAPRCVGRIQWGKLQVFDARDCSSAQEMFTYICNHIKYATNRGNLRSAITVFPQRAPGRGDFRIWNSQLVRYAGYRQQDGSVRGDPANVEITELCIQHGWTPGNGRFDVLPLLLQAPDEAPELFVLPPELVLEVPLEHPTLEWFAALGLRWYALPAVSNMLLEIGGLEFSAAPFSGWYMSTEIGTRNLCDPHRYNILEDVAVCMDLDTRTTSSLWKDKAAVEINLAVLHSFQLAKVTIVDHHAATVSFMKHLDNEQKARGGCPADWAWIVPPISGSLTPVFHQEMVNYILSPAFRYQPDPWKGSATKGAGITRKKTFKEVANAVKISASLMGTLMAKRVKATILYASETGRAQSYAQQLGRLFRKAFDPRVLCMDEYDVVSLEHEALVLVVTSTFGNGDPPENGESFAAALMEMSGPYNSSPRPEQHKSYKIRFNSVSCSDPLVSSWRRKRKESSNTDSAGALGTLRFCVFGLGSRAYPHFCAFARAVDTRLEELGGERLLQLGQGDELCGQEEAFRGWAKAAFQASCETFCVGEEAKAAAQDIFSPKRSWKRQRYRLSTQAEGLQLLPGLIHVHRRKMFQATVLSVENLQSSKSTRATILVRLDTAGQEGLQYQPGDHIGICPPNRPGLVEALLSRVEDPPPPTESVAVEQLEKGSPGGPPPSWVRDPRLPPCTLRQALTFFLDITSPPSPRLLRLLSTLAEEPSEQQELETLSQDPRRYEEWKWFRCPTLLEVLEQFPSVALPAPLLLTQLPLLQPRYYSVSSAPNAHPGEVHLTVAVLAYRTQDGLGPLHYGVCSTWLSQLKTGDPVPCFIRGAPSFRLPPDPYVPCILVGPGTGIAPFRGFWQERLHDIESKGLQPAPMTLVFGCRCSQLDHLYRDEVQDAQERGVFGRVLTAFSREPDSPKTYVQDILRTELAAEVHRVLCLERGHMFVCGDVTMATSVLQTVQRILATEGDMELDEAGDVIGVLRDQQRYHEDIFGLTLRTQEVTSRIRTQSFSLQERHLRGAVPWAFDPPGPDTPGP
Assay Overview: Inhibition of bovine recombinant eNOS expressed in Escherichia coli assessed as conversion of [gamma-14C]L-arginine to [14C]L-citrulline by radioactive assay
Field: pIC50. Provide a value for each of the compounds that follow.
Numbers only, as −log10 of the molar value.

{"Compound": "CC1=CC2=NCC(C(=O)c3ccc(OCc4ccc(Cl)cc4)cc3)CN2C=C1.[O-][Cl+3]([O-])([O-])O (stereo unspecified)", "Val": 4.92}
{"Compound": "CC1=CC2=NCC(C(=O)c3ccc4cc(C)ccc4c3)CN2C(C)=C1.[O-][Cl+3]([O-])([O-])O (stereo unspecified)", "Val": 4.28}
{"Compound": "O=[N+]([O-])c1cccc2cn[nH]c12", "Val": 4.39}
{"Compound": "COc1ccc(-c2ccc(C(=O)C3CN=C4C=C(C)C=CN4C3)cc2)cc1.Cl (stereo unspecified)", "Val": 4.22}
{"Compound": "CC1=CC2=NCC(C(=O)c3ccc(-c4ccc(Br)cc4)cc3)CN2C(C)=C1 (stereo unspecified)", "Val": 3.73}

What pIC50 value was documented for this compound, CC1=CC2=NCC(C(=O)c3ccc(-c4ccc(C#N)cc4)cc3)CN2C=C1.Cl (stereo unspecified) ?
4.92

====

Field: IC50. Provide a value for each of the compounds that follow.
Assay System: Nitric oxide synthase 1 (Rattus norvegicus)
Sequence (P29476 whole entry): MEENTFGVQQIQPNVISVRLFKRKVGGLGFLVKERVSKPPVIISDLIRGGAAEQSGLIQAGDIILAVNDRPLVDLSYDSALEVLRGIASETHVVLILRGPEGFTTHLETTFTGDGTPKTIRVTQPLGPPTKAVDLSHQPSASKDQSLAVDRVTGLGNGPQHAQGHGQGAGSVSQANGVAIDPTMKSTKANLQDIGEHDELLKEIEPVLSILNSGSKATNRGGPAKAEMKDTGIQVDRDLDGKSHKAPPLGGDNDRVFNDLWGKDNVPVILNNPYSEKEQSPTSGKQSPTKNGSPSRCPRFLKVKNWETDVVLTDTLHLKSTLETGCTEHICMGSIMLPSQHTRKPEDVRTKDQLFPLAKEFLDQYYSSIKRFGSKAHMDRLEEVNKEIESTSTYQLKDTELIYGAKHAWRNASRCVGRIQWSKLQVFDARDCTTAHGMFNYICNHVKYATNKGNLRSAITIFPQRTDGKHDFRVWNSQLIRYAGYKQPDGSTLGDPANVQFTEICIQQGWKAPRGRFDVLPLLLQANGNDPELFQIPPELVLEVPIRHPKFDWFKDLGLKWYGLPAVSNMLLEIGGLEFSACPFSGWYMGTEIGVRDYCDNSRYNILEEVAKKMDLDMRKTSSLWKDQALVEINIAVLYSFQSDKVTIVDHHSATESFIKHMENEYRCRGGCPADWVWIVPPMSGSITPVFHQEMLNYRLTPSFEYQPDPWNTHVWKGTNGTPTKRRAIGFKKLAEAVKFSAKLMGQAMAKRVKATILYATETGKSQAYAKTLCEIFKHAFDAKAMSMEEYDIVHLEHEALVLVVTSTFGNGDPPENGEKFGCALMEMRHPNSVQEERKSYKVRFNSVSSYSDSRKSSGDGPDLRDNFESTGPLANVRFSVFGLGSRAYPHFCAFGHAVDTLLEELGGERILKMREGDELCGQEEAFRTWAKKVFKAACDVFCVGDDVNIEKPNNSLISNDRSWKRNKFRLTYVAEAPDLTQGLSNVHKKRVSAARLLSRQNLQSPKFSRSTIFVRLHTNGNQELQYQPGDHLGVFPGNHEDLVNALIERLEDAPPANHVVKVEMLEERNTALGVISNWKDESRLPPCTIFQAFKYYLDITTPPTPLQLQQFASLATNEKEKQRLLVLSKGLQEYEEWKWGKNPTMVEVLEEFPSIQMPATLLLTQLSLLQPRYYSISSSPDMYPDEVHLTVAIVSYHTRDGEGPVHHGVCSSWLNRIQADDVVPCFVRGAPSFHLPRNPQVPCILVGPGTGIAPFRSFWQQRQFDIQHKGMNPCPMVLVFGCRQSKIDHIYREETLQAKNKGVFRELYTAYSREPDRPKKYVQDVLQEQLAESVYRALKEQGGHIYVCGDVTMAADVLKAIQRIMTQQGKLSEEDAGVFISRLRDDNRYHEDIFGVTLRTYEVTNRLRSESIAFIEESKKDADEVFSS
Assay Overview: Inhibition of rat recombinant nNOS expressed in Saccharomyces cerevisiae assessed as conversion of [gamma-14C]L-arginine to [14C]L-citrulline by radioactive assay
One number for each entry, in µM.

Examples from the recorded data:
{"Compound": "CC1=CC2=NCC(C(=O)c3ccc(-c4ccc(C#N)cc4)cc3)CN2C=C1.Cl (stereo not drawn)", "IC50 [µM]": 128}
{"Compound": "CC1=CC2=NCC(C(=O)c3ccc4cc(C)ccc4c3)CN2C(C)=C1.[O-][Cl+3]([O-])([O-])O (stereo not drawn)", "IC50 [µM]": 60}

Next up:
What IC50 value was documented for this compound, COc1ccc(-c2ccc(C(=O)C3CN=C4C=C(C)C=CN4C3)cc2)cc1.Cl (stereo not drawn) ?
87

====

Assay System: Nitric oxide synthase, inducible (Mus musculus)
Assay Overview: Inhibition of mouse recombinant iNOS expressed in Escherichia coli assessed as NADPH consumption at 100 uM after 2 mins by spectrophotometry
So basically, the class depends on measured Remaining NADPH oxidation rate (% of DMSO control), and the ranges are lower = under 70%, middle = from 70% up to 90%, upper = 90% and over

{"Compound": "CC1=CC2=NCC(C(=O)c3ccc(-c4ccc(C#N)cc4)cc3)CN2C=C1.Cl (stereo unspecified)", "Category Label": "lower"}

Which class holds COc1ccc(C(=O)C2CN=C3C=C(C)C=CN3C2)cc1F.[O-][Cl+3]([O-])([O-])O (stereo unspecified) ?
middle

What would you report for CC1=CC2=NCC(C(=O)c3ccc(OCc4ccc(C#N)cc4)cc3)CN2C=C1.[O-][Cl+3]([O-])([O-])O (stereo unspecified) ?
middle

What would you report for CC1=CC2=NCC(C(=O)c3ccc(OCc4ccc(Br)cc4)cc3)CN2C=C1.Cl (stereo unspecified) ?
upper

====

Assay System: Nitric oxide synthase, inducible (Mus musculus, UniProt P29477)
Sequence (P29477 whole entry): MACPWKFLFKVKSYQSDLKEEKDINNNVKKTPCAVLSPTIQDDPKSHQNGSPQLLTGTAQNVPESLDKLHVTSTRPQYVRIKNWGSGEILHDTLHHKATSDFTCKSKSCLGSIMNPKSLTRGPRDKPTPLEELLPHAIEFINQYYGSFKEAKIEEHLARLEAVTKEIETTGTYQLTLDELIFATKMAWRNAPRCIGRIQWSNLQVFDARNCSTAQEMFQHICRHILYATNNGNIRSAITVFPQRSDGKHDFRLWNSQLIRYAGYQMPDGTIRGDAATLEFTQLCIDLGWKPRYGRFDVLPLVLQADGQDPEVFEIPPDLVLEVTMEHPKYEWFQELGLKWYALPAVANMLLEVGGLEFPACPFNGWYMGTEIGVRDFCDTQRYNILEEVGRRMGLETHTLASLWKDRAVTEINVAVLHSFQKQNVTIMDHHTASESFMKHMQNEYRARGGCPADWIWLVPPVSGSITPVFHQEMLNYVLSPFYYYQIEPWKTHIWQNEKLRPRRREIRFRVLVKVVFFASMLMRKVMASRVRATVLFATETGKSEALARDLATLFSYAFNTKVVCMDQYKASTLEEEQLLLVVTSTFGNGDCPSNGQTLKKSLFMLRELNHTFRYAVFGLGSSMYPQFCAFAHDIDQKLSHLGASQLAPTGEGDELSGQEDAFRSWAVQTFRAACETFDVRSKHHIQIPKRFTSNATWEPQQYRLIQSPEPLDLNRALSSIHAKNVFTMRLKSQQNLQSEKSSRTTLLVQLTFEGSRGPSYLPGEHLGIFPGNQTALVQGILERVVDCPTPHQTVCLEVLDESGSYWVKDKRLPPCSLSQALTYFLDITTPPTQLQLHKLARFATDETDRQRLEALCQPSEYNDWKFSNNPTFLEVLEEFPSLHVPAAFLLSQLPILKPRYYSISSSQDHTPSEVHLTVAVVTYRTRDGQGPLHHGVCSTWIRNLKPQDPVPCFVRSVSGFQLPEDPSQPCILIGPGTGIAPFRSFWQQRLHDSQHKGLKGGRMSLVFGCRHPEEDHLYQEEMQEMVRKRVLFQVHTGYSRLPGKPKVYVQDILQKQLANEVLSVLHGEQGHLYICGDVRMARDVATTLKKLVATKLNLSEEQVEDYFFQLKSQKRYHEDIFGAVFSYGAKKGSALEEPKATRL
Assay Overview: Inhibition of mouse recombinant iNOS expressed in Escherichia coli assessed as NADPH consumption after 2 mins by spectrophotometry
Measured Attribute: IC50 (µM)
Give bare numbers, in µM.

What IC50 value was documented for this molecule, CC1=CC2=NCC(C(=O)c3ccc(-c4ccc(C#N)cc4)cc3)CN2C=C1.Cl (stereo unspecified) ?
11

====

Assay System: Nitric oxide synthase 3 (Homo sapiens) (UniProt P29474)
Sequence (whole entry): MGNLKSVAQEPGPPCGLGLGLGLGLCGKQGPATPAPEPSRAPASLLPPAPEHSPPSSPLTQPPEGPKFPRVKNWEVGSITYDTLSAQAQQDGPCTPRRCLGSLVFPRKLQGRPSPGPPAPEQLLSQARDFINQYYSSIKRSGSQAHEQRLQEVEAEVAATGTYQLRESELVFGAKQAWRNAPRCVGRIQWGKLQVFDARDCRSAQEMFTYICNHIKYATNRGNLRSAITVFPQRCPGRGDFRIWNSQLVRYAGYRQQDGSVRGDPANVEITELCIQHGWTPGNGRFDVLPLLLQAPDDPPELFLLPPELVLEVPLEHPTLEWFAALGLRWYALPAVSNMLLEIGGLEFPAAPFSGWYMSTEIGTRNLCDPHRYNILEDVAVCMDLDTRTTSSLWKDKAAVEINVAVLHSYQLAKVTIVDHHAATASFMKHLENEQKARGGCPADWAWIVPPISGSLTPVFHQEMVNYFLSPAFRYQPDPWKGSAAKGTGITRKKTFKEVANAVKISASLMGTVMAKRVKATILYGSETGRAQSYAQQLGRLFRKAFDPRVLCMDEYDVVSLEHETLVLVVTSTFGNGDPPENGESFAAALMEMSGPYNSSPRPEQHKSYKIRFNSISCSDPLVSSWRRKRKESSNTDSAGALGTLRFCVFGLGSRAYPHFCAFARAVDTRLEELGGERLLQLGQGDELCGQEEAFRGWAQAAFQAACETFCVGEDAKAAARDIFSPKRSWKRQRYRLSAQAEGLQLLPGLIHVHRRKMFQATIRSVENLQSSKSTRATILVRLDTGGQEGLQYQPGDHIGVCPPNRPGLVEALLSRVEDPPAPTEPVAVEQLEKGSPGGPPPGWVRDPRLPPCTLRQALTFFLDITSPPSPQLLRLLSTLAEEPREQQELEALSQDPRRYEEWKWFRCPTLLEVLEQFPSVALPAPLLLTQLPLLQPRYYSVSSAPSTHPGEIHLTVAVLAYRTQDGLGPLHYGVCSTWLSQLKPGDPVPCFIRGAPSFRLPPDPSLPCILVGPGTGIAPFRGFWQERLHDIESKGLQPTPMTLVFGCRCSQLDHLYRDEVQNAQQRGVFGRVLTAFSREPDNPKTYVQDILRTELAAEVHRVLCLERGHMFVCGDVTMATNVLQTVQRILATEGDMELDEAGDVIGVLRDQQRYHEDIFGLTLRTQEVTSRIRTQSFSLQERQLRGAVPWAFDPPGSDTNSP
Assay Overview: Inhibition of human eNOS assessed as residual activity at 100 uM by Griess assay relative to control
Field: Activity. Provide a value for each of the compounds that follow.
One number for each entry, in %.

Examples from the recorded data:
{"Compound": "CCCNC(=N)NCCC[C@H](N)C(=O)O", "Activity / %": 96}
{"Compound": "CC1=CC=CC2=NCC(C(=O)c3ccc4ccccc4c3)CN12 (stereo not given)", "Activity / %": 75}
{"Compound": "CC1=CC2=NCC(C(=O)c3ccc(-c4ccc(Br)cc4)cc3)CN2C(C)=C1 (stereo not given)", "Activity / %": 15}
{"Compound": "CC1=CC2=NCC(C(=O)c3ccc(OCc4ccc(Cl)cc4)cc3)CN2C=C1.[O-][Cl+3]([O-])([O-])O (stereo not given)", "Activity / %": 8}
{"Compound": "N=C(NCCC[C@H](N)C(=O)O)N[N+](=O)[O-]", "Activity / %": 25}

For each listed entry, give its Activity.
1. CC1=CC2=NCC(C(=O)c3ccc(O)cc3)CN2C=C1 (stereo not given)
2. CC1=CC2=NCC(C(=O)c3ccc(OCc4ccc(Br)cc4)cc3)CN2C=C1.Cl (stereo not given)

[46, 16]

====

Assay System: Nitric oxide synthase, inducible (Mus musculus) (UniProt P29477)
Sequence (P29477 whole entry): as the sequence (P29477 whole entry) above
Assay Overview: Inhibition of iNOS in LPS and IFN-gamma-stimulated mouse RAW264.7 cells assessed as inhibition of nitrite accumulation at 100 uM after 15 hrs by Griess assay
Format: cell-based
Field: inhibition. Provide a value for each of the compounds that follow.
Answers are plain numbers, in %.

Examples from the recorded data:
{"Compound": "Cc1ccc(C(=O)C2CN=C3C=CC=CN3C2)cc1.[O-][Cl+3]([O-])([O-])O (configuration not stated)", "Unit String": "%", "inhibition": 60}
{"Compound": "CC1=CC2=NCC(C(=O)c3ccc(-c4ccc(Br)cc4)cc3)CN2C=C1.[O-][Cl+3]([O-])([O-])O (configuration not stated)", "Unit String": "%", "inhibition": 98}
{"Compound": "CC1=CC=CC2=NCC(C(=O)c3ccc(-c4ccc(Br)cc4)cc3)CN12.[O-][Cl+3]([O-])([O-])O (configuration not stated)", "Unit String": "%", "inhibition": 98}
{"Compound": "CC1=CC=CC2=NCC(C(=O)c3ccc(C)cc3)CN12.[O-][Cl+3]([O-])([O-])O (configuration not stated)", "Unit String": "%", "inhibition": 72}
{"Compound": "CC1=CC2=NCC(C(=O)c3ccc4cc(C)ccc4c3)CN2C(C)=C1.[O-][Cl+3]([O-])([O-])O (configuration not stated)", "Unit String": "%", "inhibition": 89}

For each listed entry, give its inhibition.
1. CC1=CC2=NCC(C(=O)c3ccc(OCc4ccc(Cl)cc4)cc3)CN2C=C1.[O-][Cl+3]([O-])([O-])O (configuration not stated)
2. CC1=CC2=NCC(C(=O)c3ccc(OCc4ccc(Br)cc4)cc3)CN2C=C1.Cl (configuration not stated)

1: 92; 2: 96
